OD490 Well 3 listing for selected molecules.
Tested on: T24 cell line
Assay: Cytotoxicity MTS assay, T24 cell line;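 also: blank control wells received 0.025% DMSO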
Assay type: cell-based
Settings: T24 cell line, 25μM, first assay
readout-kind: OD490 Well 3

molecule | reading
CCOC(=O)c1[nH]c(C2NC(=S)NC(C)=C2C(=O)OC)c(C(=O)OCC)c1C (stereo not shown) [D12] | 1.3572
CCOC(=O)c1c(C2NC(=O)NC(C)=C2C(=O)Nc2ccccc2C)[nH]c(C(=O)OC)c1C (stereo not shown) [D2] | 1.2060
CCOC(=O)c1c(C2NC(=O)NC(C)=C2C(=O)Nc2ccccc2)[nH]c(C(=O)OC)c1C (stereo not shown) [D10] | 1.2686
CCOC(=O)c1[nH]c(C2NC(=O)NC(C)=C2C(=O)Nc2ccc(Cl)cc2)c(C(=O)OCC)c1C (stereo not shown) [D7] | 1.3956
COC(=O)c1[nH]c(C2NC(=S)NC(C)=C2C(=O)c2ccccc2)c(C(=O)OC)c1C (stereo not shown) [D14] | 1.2646
CCOC(=O)c1c(C2NC(=O)NC(C)=C2C(=O)Nc2ccccc2OC)[nH]c(C(=O)OC)c1C (stereo not shown) [D1] | 1.6554
CCOC(=O)C1=C(C)NC(=S)NC1c1cccc(O)c1 (stereo not shown) [Monastrol, monastrol, reference compound] | 1.7965
CCOC(=O)c1[nH]c(C2NC(=O)NC(C)=C2C(=O)Nc2ccccc2OC)c(C(=O)OC)c1C (stereo not shown) [D3] | 1.4336
CCOC(=O)c1[nH]c(C2NC(=O)NC(C)=C2C(=O)Nc2ccccc2C)c(C(=O)OC)c1C (stereo not shown) [D4] | 1.8128
CCOc1ccccc1C1NC(=S)NC(C)=C1C(=O)Nc1ccc(Cl)cc1 (stereo not shown) [C9] | 1.6875
